The following molecules are listed with their measured % maximal contractional effect values.
# System: contractile response to potassium-induced depolarization on isolated rat aorta
# experimental.protocol: Calcium inhibitory properties: antagonism of contractile response to potassium-induced depolarization on isolated rat aorta
# Design: species or system rat (male Wistar)
# experimental.parameters: 10^-8 M; percent of maximal contraction before incubation; 60 min, 0.01 µM

Worked cases, % maximal contractional effect given:
| molecule | system.tested | % maximal contractional effect |
| --- | --- | --- |
| CC(C)c1c(S(=O)(=O)c2ccc(OCCCN(C)C3CCCc4ccccc43)cc2)c2cc(Cl)ccc2n1C.O=C(O)C(=O)O (stereo not drawn) [Ex. 47] | contractile response to potassium-induced depolarization on isolated rat aorta | 88,3% |
| COc1ccc2c(c1)c(C(C)C)c(S(=O)(=O)c1ccc(OCCCN(C)CCc3ccc(OC)c(OC)c3)cc1)n2CCCN(C)CCc1ccc(OC)c(OC)c1 [Ex. 63] | contractile response to potassium-induced depolarization on isolated rat aorta | 82,8% |
| COc1ccc(CCN(C)CCCOc2ccc(S(=O)(=O)c3c(C(C)C)n(C)c4cc(C)ccc34)cc2)cc1OC [Ex. 45] | contractile response to potassium-induced depolarization on isolated rat aorta | 75,2% |
| COc1ccc(CCN(C)CCCOc2ccc(S(=O)(=O)c3c(C(C)C)cn4cccc(C)c34)cc2)cc1OC [Ex. 15] | contractile response to potassium-induced depolarization on isolated rat aorta | 11,1% |

If you can, please state the reported % maximal contractional effect value of COc1ccc(CCN(C)CCCOc2ccc(S(=O)(=O)c3c(C(C)C)c4cc(Cl)ccc4n3C)cc2)cc1OC [Ex. 59] . 55,4%

If you can, please state the reported % maximal contractional effect value of CCCCN(CCCC)CCCOc1ccc(S(=O)(=O)c2c(C(C)C)n(C)c3cc(C)ccc23)cc1.O=C(O)C(=O)O [Ex. 46] . 67,2%

If you can, please state the reported % maximal contractional effect value of Cc1nn2cccc(C)c2c1S(=O)(=O)c1ccc(OCCCN(C)C2CCCc3ccccc32)cc1 (stereo not drawn) [Ex. 51] . 67,1%

If you can, please state the reported % maximal contractional effect value of COc1ccc2c(c1)c(C(C)C)c(S(=O)(=O)c1ccc(OCCCN(C)CCc3ccc(OC)c(OC)c3)cc1)n2C [Ex. 61] . 31,2%

If you can, please state the reported % maximal contractional effect value of CCc1nn2cc(C)ccc2c1S(=O)(=O)c1ccc(OCCCN(C)CCc2ccc(OC)c(OC)c2)cc1 [Ex. 81] . 78,1%

If you can, please state the reported % maximal contractional effect value of COc1ccc(CCN(C)CCCOc2ccc(S(=O)(=O)c3c(C(C)C)n(C)c4ccc(Cl)cc34)cc2)cc1OC [Ex. 13] . 79,2%

If you can, please state the reported % maximal contractional effect value of CCc1nn2cccc(C)c2c1S(=O)(=O)c1ccc(OCCCN(C)CCc2ccc(OC)c(OC)c2)cc1 [Ex. 78] . 17,5%

If you can, please state the reported % maximal contractional effect value of COc1ccc(CCN(C)CCCOc2ccc(S(=O)(=O)c3c(C(C)C)c4ccccc4n3CCCN(C)CCc3ccc(OC)c(OC)c3)cc2)cc1OC [Ex. 10] . 90,2%

###

# System: contractile response to potassium-induced depolarization on isolated rat aorta
# experimental.protocol: Calcium inhibitory properties: antagonism of contractile response to potassium-induced depolarization on isolated rat aorta
# Set-up: species or system rat (male Wistar)
# experimental.parameters: 10^-9 M; percent of maximal contraction before incubation; 60 min, 0.001 µM
quantity.kind: % maximal contractional effect

Worked cases, % maximal contractional effect given:
| item.smiles | system.tested | % maximal contractional effect |
| --- | --- | --- |
| COc1cc(OC)c(C(C)C)c(S(=O)(=O)c2ccc(OCCCN(C)CCc3ccc(OC)c(OC)c3)cc2)c1.O=C(O)C(=O)O | contractile response to potassium-induced depolarization on isolated rat aorta | 85,7% |
| CCN(CC)CCn1c(C(C)C)c(S(=O)(=O)c2ccc(OCCCN(C)CCc3ccc(OC)c(OC)c3)cc2)c2ccccc21 | contractile response to potassium-induced depolarization on isolated rat aorta | 90,4% |

# input for lookup
API: value(readout= % maximal contractional effect, system= contractile response to potassium-induced depolarization on isolated rat aorta, query= COc1ccc2c(c1)c(C(C)C)c(S(=O)(=O)c1ccc(OCCCN(C)CCc3ccc(OC)c(OC)c3)cc1)n2C ) 71,4%
